- assay_notes: Small Molecules that selectively kill Giardia lamblia: qHTS;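 also: parasites exposed to compound for two days anaerobically before the ATP read; % is scaled to controls: 0 for no effect and ±100 for the full control effect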
- condition_description: Giardia lamblia trophozoite viability; at 7.66 µM; hits give low values
Out of some 340,000 compounds screened, about 530 (0.16%) were called active. About 2% were inconclusive and are not listed. The full list was thinned out, with actives kept by preference.
In this section, each of the compounds is paired with its reported activity change.
A number alone suffices; assume %.

Study these solved cases before continuing.
COc1cc2nc(CN(C)Cc3ccc(F)cc3)[nH]c(=O)c2cc1OC = 1.83
COc1ccc(S(=O)(=O)N2CCN(CC(=O)N3c4ccccc4CC3C)CC2)cc1OC (stereo not given) = -6.14
Cc1ccc(-c2nnc3ccc(SCC(N)=O)nn23)cc1 = 5.27
CC1(C(=O)NCCc2c[nH]c3ccccc23)C=CC2(CCCCC2)N1C(=O)c1ccccc1 (stereo not given) = 17.9
Cc1noc(NS(=O)(=O)c2ccc(NC(=O)c3oc4ccc(F)cc4c3C)cc2)c1C = 6.55
O=C(c1cccc(F)c1)N1CCN(c2ccc([N+](=O)[O-])c(N3CCCCC3)c2)CC1 = 5.61

Please give the measured activity change for this compound: CCC1(C)Cc2c(sc3[nH]c(=S)n(Cc4ccccc4)c(=O)c23)CO1 (stereo not given)
-14.6

Please give the measured activity change for this compound: O=S(=O)(Nc1cccc2cccnc12)c1cccc2cccnc12
-17.9

Please give the measured activity change for this compound: COC(=O)[C@]1(C)N[C@H](c2ccc(-c3ccc(Cl)c(Cl)c3)cc2)[C@@H]2C(=O)N(C)C(=O)[C@@H]21
-3.14

Please give the measured activity change for this compound: Cc1ccc2oc(C(=O)N3CCN(C)C[C@@H]3C(C)C)c(C)c2c1
11.8

Origin of the recorded values: PubChem BioAssay AID540267
